# tested-target: MOR
# assay-procedure: Radioligand binding assay at μ opioid receptor
Non-standard residues stand in square brackets, D forms with d. Residues, ends and D or L forms follow the SMILES beside them. *: point of attachment. NH(3,5-(CF3)2-benzyl) = FC(F)(F)c1cc(CN*)cc(C(F)(F)F)c1; Dmt = Cc1cc(O)cc(C)c1C[C@H](N)C(=O)O; NMeF = CN[C@@H](Cc1ccccc1)C(=O)O; Orn = NCCC[C@H](N)C(=O)O
quantity: Ki (nM)
Give bare numbers, in nM.

Worked set:
query: Which Ki is reported for this compound? CC(C)C[C@H](NC(=O)[C@@H]1CCCN1C(=O)CNC(=O)[C@H](CO)NC(=O)[C@H](Cc1ccccc1)N(C)C(=O)CNC(=O)[C@@H](C)NC(=O)[C@@H](N)Cc1ccc(O)cc1)C(=O)N[C@@H](Cc1c[nH]c2ccccc12)C(=O)NCc1cc(C(F)(F)F)cc(C(F)(F)F)c1 [AKG-CRA-136] (H-Y[dA]G[NMeF]SGPLW-{NH(3,5-(CF3)2-benzyl)})
result: 3

query: Item: `CC(C)C[C@H](NC(=O)[C@@H]1CCCN1C(=O)CCCCCNC(=O)[C@H](Cc1ccccc1)N(C)C(=O)CNC(=O)[C@@H](C)NC(=O)[C@@H](N)Cc1ccc(O)cc1)C(=O)N[C@@H](Cc1c[nH]c2ccccc12)C(=O)NCc1cc(C(F)(F)F)cc(C(F)(F)F)c1`
result: 7

query: Item: Cc1cc(O)cc(C)c1C[C@H](N)C(=O)N[C@H](C)C(=O)NCC(=O)N(C)[C@@H](Cc1ccccc1)C(=O)N[C@@H](CCC(N)=O)C(=O)NCC(=O)N1CCC[C@H]1C(=O)N[C@@H](CC(C)C)C(=O)N[C@@H](Cc1c[nH]c2ccccc12)C(=O)NCc1cc(C(F)(F)F)cc(C(F)(F)F)c1 [AKG-SK-146] (H-[Dmt][dA]G[NMeF]QGPLW-{NH(3,5-(CF3)2-benzyl)}; N-terminus assumed)
result: 0.6

Moving on to the next compound.
query: Which Ki is reported for this compound? CC(C)C[C@H](NC(=O)[C@@H]1CCCN1C(=O)[C@H](CCCN)NC(=O)[C@H](Cc1ccccc1)N(C)C(=O)CNC(=O)[C@@H](C)NC(=O)[C@@H](N)Cc1ccc(O)cc1)C(=O)N[C@@H](Cc1c[nH]c2ccccc12)C(=O)NCc1cc(C(F)(F)F)cc(C(F)(F)F)c1 [AKG173] (H-Y[dA]G[NMeF][Orn]PLW-{NH(3,5-(CF3)2-benzyl)})
result: 5

Origin of measurements: patent US11141452B2
